- target.system: HSD17B13 (Homo sapiens (Human))
- Sequence (Q7Z5P4 other isoform, or with tags, fused parts or gaps): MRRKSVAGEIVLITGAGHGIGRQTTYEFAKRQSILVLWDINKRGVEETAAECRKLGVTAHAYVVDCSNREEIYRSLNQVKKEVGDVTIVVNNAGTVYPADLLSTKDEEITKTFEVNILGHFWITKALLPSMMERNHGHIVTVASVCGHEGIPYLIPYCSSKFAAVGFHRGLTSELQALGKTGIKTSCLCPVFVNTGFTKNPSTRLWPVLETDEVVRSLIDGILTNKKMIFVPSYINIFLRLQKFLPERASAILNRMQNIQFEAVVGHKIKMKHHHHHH
- assay.method.text: HSD17B13 enzymatic inhibition assay (150 nM or 50 nM HSD17B13)
- Assay type: biochemical
- experimental.parameters: 50 nM HSD17B13; read-out: Inhibition of 50 nM of HSD17B13 IC50
experimental.readout: IC50 (nM)
Express your answer in nM, writing the number without its unit.

compound: O=C(NC(c1ccccc1)c1ccc(Cl)cc1)c1ccc(C(F)(F)F)[nH]c1=O (centres unmarked)
data.value: 750

Look up IC50 for this compound: O=C(NC(c1ccc(Cl)cc1)c1ccc(Cl)cc1)c1ccc(C(F)(F)F)[nH]c1=O
960

* * *

- target.system: HSD17B13 (Homo sapiens (Human))
- assay.method.text: HSD17B13 enzymatic inhibition assay (150 nM or 50 nM HSD17B13)
- Assay type: biochemical
- experimental.parameters: 50 nM HSD17B13; read-out: Inhibition of 50 nM of HSD17B13 IC50
pIC50: −log10 of the molar value.
pIC50 vs 6: at or above is condition met, below is condition not met.

Consider the worked cases shown below.
compound: Cc1ccc2c(c1)Oc1cc(C)ccc1C2NC(=O)c1ccc(C)[nH]c1=O [Compound 149]
target.system: HSD17B13 (Homo sapiens (Human))
class.name: condition not met

compound: Cc1ccc2c(c1)Oc1cccc(C)c1C2NC(=O)c1ccc(C(F)(F)F)[nH]c1=O (centres unmarked) [Compound 53]
target.system: HSD17B13 (Homo sapiens (Human))
class.name: condition met

compound: CC(NC(=O)c1ccc(C(F)(F)F)[nH]c1=O)c1ccc(Cl)cc1Oc1cccc(Cl)c1 (centres unmarked) [Compound 222]
target.system: HSD17B13 (Homo sapiens (Human))
class.name: condition not met

compound: CC(C)(C)OC(=O)N1Cc2ccccc2C(NC(=O)c2ccc(C(F)(F)F)[nH]c2=O)C1 (centres unmarked) [Compound 317]
target.system: HSD17B13 (Homo sapiens (Human))
class.name: condition not met

compound: C=CCc1cc(C(=O)NC2c3ccc(Cl)cc3Oc3cccc(Cl)c32)c(=O)[nH]c1C(F)(F)F (centres unmarked) [Compound 174]
target.system: HSD17B13 (Homo sapiens (Human))
class.name: condition met

Has Cc1ccc2c(c1)CCCC2NC(=O)c1ccc(C(F)(F)F)[nH]c1=O (centres unmarked) [Compound 235] a recorded pIC50 greater than or equal to 6?
condition met

Has Cc1ccc2c(c1)Oc1cc(C)ccc1C2NC(=O)c1cc(-c2cc[nH]c(=O)c2)c(C(F)(F)F)[nH]c1=O [Compound 494] a recorded pIC50 greater than or equal to 6?
condition met

Has CNCCc1cc(C(=O)NC2c3ccc(C)cc3Oc3cccc(C)c32)c(=O)[nH]c1C(F)(F)F (centres unmarked) [Compound 524] a recorded pIC50 greater than or equal to 6?
condition not met

* * *

- assay.method.text: Microsome stability assay, mouse liver microsomes
- Type: in vitro ADME
- experimental.parameters: 60 min; 1 μM compound, 0.5 mg/mL microsomal protein
experimental.readout: Microsome Stability Mouse liver microsomes % Remaining @60 min (%)
Express your answer in %, writing the number without its unit.

Look over these answered cases.
compound: Cc1cccc(C(NC(=O)c2ccc(C(F)(F)F)[nH]c2=O)c2ccccc2)c1 (stereo not shown) [Compound 490]
data.value: 1.60
--
compound: CCC[C@@H]1C[C@@H](NC(=O)c2ccc(C(F)(F)F)[nH]c2=O)c2ccc(C)cc2N1 [Compound 369]
data.value: 95.30
--
compound: Cc1ccc2c(c1)Sc1cc(C)ccc1C2NC(=O)c1ccc(C(F)(F)F)[nH]c1=O [Compound 252]
data.value: 28.60

Now look at this one.
Look up Microsome Stability Mouse liver microsomes % Remaining @60 min for this compound: Cc1ccc2c(c1)[C@H](NC(=O)c1ccc(C(F)(F)F)[nH]c1=O)C[C@@H](C)N2 [Compound 370]
99.10

Entry source: patent US11957687B2
